TESTED_SYSTEM: Metabotropic glutamate receptor 8 (Rattus norvegicus)
ASSAY: mGluR8 Gi/Go-coupled signaling modulation – cell-based, rat, thallium flux, HTS, primary screen (AID 488969)
ASSAY_CONDITIONS: HEK293 rat mGluR8, GIRK thallium flux, FluoZin2; at 10 µM; stronger effect = higher value; submaximal glutamate (EC20) added with thallium
In all, about 110,000 compounds were measured (“z-score”: median about -0.1, highest 2% from about 2 on). The entries come from a sample that favours the highest values as a whole.
# maps each entry to its z-score
API note: the answer field is a bare number with no unit suffix.

z-score reading for `COC(=O)c1c(NC(=S)Nc2ccccc2Cl)sc(C)c1C` : 0.827

Moving on to another compound below.
Please fill in: z-score reported for `O=C(NC(=S)Nc1ccccc1)c1ccc(-c2ccccc2)cc1` = 0.0142

---

# z-score per entry
TESTED_SYSTEM: Metabotropic glutamate receptor 8 (Rattus norvegicus) (UniProt P70579)
Sequence (P70579 whole entry, looked up): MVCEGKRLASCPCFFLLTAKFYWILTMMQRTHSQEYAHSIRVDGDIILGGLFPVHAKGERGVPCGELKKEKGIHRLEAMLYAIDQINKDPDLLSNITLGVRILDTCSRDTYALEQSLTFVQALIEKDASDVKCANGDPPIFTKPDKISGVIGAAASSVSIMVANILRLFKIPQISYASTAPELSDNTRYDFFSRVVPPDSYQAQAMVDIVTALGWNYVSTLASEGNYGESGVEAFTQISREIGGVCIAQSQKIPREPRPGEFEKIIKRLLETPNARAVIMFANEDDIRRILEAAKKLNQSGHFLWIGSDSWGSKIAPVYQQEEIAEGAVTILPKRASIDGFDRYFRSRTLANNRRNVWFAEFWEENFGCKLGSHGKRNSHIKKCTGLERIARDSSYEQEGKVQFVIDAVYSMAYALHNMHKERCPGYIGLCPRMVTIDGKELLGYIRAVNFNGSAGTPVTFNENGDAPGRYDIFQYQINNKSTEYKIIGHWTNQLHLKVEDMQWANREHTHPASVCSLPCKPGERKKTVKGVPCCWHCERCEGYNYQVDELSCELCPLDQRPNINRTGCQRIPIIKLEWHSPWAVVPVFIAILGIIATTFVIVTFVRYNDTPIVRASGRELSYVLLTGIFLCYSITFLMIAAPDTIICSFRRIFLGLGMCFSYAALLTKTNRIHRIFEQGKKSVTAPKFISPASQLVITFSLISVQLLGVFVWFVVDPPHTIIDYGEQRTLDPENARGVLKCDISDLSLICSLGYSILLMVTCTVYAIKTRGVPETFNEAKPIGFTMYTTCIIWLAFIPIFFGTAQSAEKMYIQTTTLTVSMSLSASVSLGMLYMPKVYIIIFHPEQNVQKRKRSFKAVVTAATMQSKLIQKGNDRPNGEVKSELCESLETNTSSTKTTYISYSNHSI
ASSAY: mGluR8 Gi/Go-coupled signaling modulation – cell-based, rat, thallium flux, HTS, primary screen (AID 488969)
ASSAY_CONDITIONS: HEK293 rat mGluR8, GIRK thallium flux, FluoZin2; at 10 µM; stronger effect = higher value; submaximal glutamate (EC20) added with thallium
Over roughly 110,000 compounds, “z-score” has its median near -0.1; the highest 2% begin near 2. The list comes from a sample in which the highest values are over-represented; it also holds close analogues and randomly drawn compounds.

Per the record, `Cc1occc1C(=O)OCC(=O)Nc1ccc(F)cc1` has z-score of 0.794

Others:
compound `Cc1onc(-c2c(Cl)cccc2Cl)c1C(=O)N1CCc2ccccc2C1` , z-score observed: 0.0144

---

TESTED_SYSTEM: Metabotropic glutamate receptor 8 (Rattus norvegicus) (UniProt P70579)
ASSAY: mGluR8 Gi/Go-coupled signaling modulation – cell-based, rat, thallium flux, HTS, primary screen (AID 488969)
ASSAY_CONDITIONS: HEK293 rat mGluR8, GIRK (G protein-gated inwardly rectifying potassium channel) thallium flux, FluoZin2; at 10 µM; stronger effect = higher value; submaximal glutamate (EC20) added with thallium
Over roughly 110,000 compounds, “z-score” has its median near -0.1; the highest 2% begin near 2. This excerpt belongs to a sample that is enriched for the highest values.
Quick reference for z-score among some molecules
Respond with the number and no other words.

// known answers, use as guide
With Metabotropic glutamate receptor 8 (Rattus norvegicus) (UniProt P70579) as the test system, `CC(C)COC(=O)CCNc1n[nH]c(=O)[nH]c1=O` showed z-score of 0.184

# z-score measured on Metabotropic glutamate receptor 8 (Rattus norvegicus) (UniProt P70579) for item `O=C(c1cccc(F)c1)N1CCN(C(=O)c2cc(-c3ccc(Cl)cc3Cl)on2)CC1` = 3.48

Given the molecule `O=C(c1cc(-c2ccc(Cl)cc2Cl)on1)N1CCOCC1` and test system Metabotropic glutamate receptor 8 (Rattus norvegicus) (UniProt P70579), the measured z-score is -0.321

Per the reported Metabotropic glutamate receptor 8 (Rattus norvegicus) (UniProt P70579) data, O=C(Nc1nnc(SCc2ccc(F)cc2)s1)C1CC(=O)N(c2ccc3c(c2)OCCO3)C1 (stereo not given) has z-score of 3.68

Now examine the next entry.
The observed z-score for `O=C(c1cc(-c2ccc(Cl)cc2Cl)on1)N1CCN(C(=O)c2ccco2)CC1` when tested with Metabotropic glutamate receptor 8 (Rattus norvegicus) (UniProt P70579) stands at 0.486
